Target: Activin receptor type-1B (Homo sapiens) (UniProt P36896)
Sequence (P36896 whole entry): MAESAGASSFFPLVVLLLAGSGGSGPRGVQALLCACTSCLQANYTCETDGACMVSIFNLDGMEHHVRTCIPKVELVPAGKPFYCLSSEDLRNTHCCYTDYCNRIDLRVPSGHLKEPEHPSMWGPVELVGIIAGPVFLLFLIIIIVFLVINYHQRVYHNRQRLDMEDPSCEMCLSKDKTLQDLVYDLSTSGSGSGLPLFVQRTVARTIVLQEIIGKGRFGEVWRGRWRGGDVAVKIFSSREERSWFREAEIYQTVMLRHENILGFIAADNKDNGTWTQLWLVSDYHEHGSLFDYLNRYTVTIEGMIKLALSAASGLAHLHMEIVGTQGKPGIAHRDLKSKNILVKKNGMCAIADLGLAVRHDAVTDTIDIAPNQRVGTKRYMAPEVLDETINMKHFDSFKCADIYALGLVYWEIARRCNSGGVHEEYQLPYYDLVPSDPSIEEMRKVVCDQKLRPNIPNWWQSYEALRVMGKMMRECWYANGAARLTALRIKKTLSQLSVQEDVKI
Test: Inhibition of ALK4 expressed in baculovirus/Sf9 cells assessed as inhibition of receptor autophosphorylation at 1 uM after 3 hrs
propertyLabel: inhibition

Examples with their reported inhibition follow.
cpdSmiles	propertyLabel	result
COc1ccc(-c2cc(-c3ccc(C(N)=O)cc3)nn2-c2ccccc2F)cc1OC	inhibition	70.4%
Cc1cccc(-c2nc(-c3ccc(C#N)cc3)cn2-c2ccc3c(c2)OCO3)n1	inhibition	76.9%
NC(=O)c1ccc(-c2cn(-c3ccc4c(c3)OCO4)c(-c3ccccn3)n2)cc1	inhibition	73.7%

For every listed record, write down its inhibition.
1. NC(=O)c1ccc(-c2cc(-c3ccccc3F)n(-c3ccc4c(c3)OCO4)n2)cc1
2. NC(=O)c1ccc(-c2cc(-c3ccc4c(c3)OCO4)n(-c3ccccn3)n2)cc1
3. Cc1cccc(-c2nc(-c3ccc(C(N)=O)cc3)cn2-c2ccc(F)cc2)n1
4. Cc1cccc(-c2nc(-c3ccc(C(N)=O)cc3)cn2-c2ccc3c(c2)OCCO3)n1
5. NC(=O)c1ccc(-c2cc(-c3ccc4c(c3)OCO4)n(-c3ccccc3F)n2)cc1
6. NC(=O)c1ccc(-c2cc(-c3ccc(O)c(O)c3)n(-c3ccccc3O)n2)cc1
7. Cc1cccc(-n2nc(-c3ccc(C#N)cc3)cc2-c2ccc3c(c2)OCO3)n1

Output:
41.9%
74.7%
34.5%
49.3%
50.7%
93.7%
77.7%

----------
Molecular target: Activin receptor type-1C (Homo sapiens) (UniProt Q8NER5)
Sequence (whole entry): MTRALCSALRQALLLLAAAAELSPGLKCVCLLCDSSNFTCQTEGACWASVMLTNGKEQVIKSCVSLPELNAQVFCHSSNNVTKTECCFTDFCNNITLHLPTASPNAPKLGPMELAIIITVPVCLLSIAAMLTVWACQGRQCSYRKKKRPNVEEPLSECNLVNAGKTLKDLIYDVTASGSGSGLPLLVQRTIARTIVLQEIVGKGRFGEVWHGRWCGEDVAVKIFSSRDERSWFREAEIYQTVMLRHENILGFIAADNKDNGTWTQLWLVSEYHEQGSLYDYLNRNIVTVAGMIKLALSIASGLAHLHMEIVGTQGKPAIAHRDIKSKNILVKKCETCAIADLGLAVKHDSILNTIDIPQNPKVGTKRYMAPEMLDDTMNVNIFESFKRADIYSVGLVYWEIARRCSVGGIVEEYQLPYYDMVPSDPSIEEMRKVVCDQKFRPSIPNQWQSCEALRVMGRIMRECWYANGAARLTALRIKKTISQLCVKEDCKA
Experiment: Inhibition of ALK7 expressed in baculovirus/Sf9 cells assessed as inhibition of receptor autophosphorylation at 0.1 uM after 3 hrs
propertyLabel: inhibition (%)
Numbers only, in %.

Examples with their reported inhibition follow.
cpdSmiles	number
NC(=O)c1ccc(-c2cc(-c3ccc4c(c3)OCO4)n(-c3ccccc3F)n2)cc1	22.7
Cc1cccc(-c2nc(-c3ccc(C(N)=O)cc3)cn2-c2ccc3c(c2)OCCO3)n1	13.4

// switching to the query molecule
Input: Form field: reported inhibition of `NC(=O)c1ccc(-c2cn(-c3ccc4c(c3)OCO4)c(-c3ccccn3)n2)cc1`
Output: 24.5

----------
Biological target: Activin receptor type-1B (Homo sapiens)
Test: Inhibition of ALK4 expressed in baculovirus/Sf9 cells assessed as inhibition of receptor autophosphorylation at 0.1 uM after 3 hrs
Give measured inhibition for each item. Keep answers brief.
Enter the number, and then the unit.

Examples with their reported inhibition follow.
cpdSmiles	experimentalTarget	inhibition
Cc1cccc(-c2nc(-c3ccc(C(N)=O)cc3)cn2-c2ccc(F)cc2)n1	Activin receptor type-1B (Homo sapiens)	25%
NC(=O)c1ccc(-c2cc(-c3ccccc3F)n(-c3ccc4c(c3)OCO4)n2)cc1	Activin receptor type-1B (Homo sapiens)	3.2%
COc1ccc(-c2cc(-c3ccc(C(N)=O)cc3)nn2-c2ccccc2F)cc1OC	Activin receptor type-1B (Homo sapiens)	32.1%

// switching to the query compound
Input: Form field: reported inhibition of `NC(=O)c1ccc(-c2cc(-c3ccc4c(c3)OCO4)n(-c3ccccn3)n2)cc1`
Output: 70%

Data origin: ChEMBL document CHEMBL1154039
